- target.of.assay: PI3K-α (PIK3CA) in MDA-MB-453 cells (Homo sapiens)
- Sequence (P27986 2-724): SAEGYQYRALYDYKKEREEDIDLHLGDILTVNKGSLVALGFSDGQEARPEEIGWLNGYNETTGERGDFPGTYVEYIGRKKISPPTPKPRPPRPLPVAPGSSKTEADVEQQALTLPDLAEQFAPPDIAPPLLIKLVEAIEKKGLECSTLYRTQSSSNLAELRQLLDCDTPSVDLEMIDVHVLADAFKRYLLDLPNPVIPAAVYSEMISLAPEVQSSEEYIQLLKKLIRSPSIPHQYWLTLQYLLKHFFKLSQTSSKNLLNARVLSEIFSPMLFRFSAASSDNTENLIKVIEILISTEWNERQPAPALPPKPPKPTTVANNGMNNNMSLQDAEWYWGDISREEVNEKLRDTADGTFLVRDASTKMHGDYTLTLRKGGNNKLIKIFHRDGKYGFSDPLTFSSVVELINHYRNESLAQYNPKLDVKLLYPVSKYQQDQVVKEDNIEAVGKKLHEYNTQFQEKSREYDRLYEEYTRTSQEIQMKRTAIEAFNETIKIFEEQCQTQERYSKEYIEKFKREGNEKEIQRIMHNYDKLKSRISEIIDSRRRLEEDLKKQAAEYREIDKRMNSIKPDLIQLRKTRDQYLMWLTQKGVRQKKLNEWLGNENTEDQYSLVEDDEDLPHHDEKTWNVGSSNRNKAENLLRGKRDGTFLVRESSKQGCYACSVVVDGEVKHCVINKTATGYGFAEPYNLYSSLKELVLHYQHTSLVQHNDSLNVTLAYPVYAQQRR
- Sequence (P42336 whole entry): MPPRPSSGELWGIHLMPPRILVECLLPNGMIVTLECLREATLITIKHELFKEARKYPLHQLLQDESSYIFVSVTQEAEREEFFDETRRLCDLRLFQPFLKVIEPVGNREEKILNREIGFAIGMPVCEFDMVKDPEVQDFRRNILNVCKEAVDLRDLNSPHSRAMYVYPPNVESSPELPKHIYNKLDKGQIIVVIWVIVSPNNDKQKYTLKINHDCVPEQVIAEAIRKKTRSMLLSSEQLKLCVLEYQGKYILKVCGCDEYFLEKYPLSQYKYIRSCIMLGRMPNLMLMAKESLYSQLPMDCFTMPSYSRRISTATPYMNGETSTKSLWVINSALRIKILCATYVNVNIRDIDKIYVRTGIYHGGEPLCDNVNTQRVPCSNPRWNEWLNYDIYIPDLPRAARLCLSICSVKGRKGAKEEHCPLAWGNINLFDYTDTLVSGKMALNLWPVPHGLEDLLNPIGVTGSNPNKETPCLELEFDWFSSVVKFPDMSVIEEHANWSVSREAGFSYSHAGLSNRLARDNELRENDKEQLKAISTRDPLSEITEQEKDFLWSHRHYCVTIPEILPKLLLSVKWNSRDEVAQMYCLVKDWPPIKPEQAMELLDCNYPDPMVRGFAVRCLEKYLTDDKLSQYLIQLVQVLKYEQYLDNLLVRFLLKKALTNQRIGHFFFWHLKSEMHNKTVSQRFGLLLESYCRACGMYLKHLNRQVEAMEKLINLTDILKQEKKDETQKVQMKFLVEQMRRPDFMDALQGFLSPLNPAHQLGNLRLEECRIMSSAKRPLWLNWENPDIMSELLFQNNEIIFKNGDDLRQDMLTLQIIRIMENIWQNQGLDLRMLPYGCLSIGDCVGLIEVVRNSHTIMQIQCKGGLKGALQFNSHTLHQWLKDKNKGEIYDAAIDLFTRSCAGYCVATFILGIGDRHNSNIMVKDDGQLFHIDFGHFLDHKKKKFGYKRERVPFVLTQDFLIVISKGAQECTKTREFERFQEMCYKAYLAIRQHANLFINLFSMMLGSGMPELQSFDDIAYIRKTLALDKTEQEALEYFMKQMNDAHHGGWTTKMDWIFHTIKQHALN
- experimental.protocol: PI3K-alpha kinase (PIK3CA) in vitro cell based assay, MDA-MB-453 cells, SureFire Ultra AlphaLisa
- test.settings: read-out: PI3K-α (PIK3CA) in vitro cell based assay IC50
pIC50: −log10 of the molar value.
List of pIC50 values.
outcome.measure: pIC50

1) Cc1cc(C(C)Nc2ccccc2C(=O)O)c2oc(-c3cccc4oc(C)nc34)cc(=O)c2c1 (single isomer, unassigned) | < 6.30
2) Cc1cc([C@@H](C)Nc2ccc(F)cc2C(=O)O)c2oc(-c3ccc4c(cnn4C)c3)c(C)c(=O)c2c1 | > 7.30
3) Cc1cc(C(C)Nc2ccccc2C(=O)O)c2oc(-c3ccc4oc(=O)[nH]c4c3)cc(=O)c2c1 (single isomer, unassigned) | 7.00 to 7.30
4) Cc1cc(C(C)Nc2ccccc2C(=O)O)c2oc(-c3ccc4nc(C#N)ccc4c3)cc(=O)c2c1 (single isomer, unassigned) | 7.00 to 7.30
5) Cc1cc(C(C)Nc2ccccc2C(=O)O)c2oc(-c3cc4ccncc4o3)c(C)c(=O)c2c1 (single isomer, unassigned) | > 7.30
